Numbers sourced from patent EP3878460A1.

- Tested on: hepatocytes (HepG2 cells)
- assay.remarks: Hepacytotoxicity, cell viability by MTS assay
- experimental.parameters: HepG2 cells, 10, 50, 100 or 200 µM, 24 hours; calculated from cell viability
# key: entry, value: LD50

{"compound": "Oc1cc(O)c2c(c1)O[C@H](c1cc(O)c(O)c(O)c1)[C@@H](O)C2", "unit.label": "µM", "LD50": 236.2}
{"compound": "Oc1cc(O)c2c(c1)O[C@H](c1cc(O)c(O)c(O)c1)[C@H](O)C2 [EGC, epigallocatechin]", "unit.label": "µM", "LD50": 183.9}
{"compound": "O=C(O[C@@H]1Cc2c(O)cc(O)cc2O[C@@H]1c1cc(O)c(O)c(O)c1)c1cc(O)c(O)c(O)c1 [EGCG, epigallocatechin gallate]", "unit.label": "µM", "LD50": 355.5}
{"compound": "O=C(O[C@@H]1Cc2c(O)cc(O)cc2O[C@H]1c1cc(O)c(O)c(O)c1)c1cc(O)c(O)c(O)c1 [GCG, gallocatechin gallate]", "unit.label": "µM", "LD50": 212.7}
